# subject of test: Recombinant Human 5′-Nucleotidase (CD73) (Homo sapiens, UniProt P21589)
# Construct: CHO derived CD73 (Trp27-Lys547), with a C-terminal 6-His tag; 6-His (C); purchased R&D 5795-EN; host or cells: CHO
# Sequence (P21589 27-547): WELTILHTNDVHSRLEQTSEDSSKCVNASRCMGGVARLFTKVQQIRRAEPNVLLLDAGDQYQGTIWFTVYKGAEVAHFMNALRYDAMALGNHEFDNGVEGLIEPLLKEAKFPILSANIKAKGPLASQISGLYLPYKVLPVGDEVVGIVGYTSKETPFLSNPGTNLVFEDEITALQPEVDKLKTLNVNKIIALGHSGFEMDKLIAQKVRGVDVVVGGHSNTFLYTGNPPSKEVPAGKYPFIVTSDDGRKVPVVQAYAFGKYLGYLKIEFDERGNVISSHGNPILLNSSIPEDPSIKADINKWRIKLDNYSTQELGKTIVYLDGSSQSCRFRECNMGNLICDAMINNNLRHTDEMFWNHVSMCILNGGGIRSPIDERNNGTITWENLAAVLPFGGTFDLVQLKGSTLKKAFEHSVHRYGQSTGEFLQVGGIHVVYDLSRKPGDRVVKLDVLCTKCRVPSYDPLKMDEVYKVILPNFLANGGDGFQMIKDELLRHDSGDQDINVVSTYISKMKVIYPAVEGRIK
# experiment description: CD73 Enzyme Assay
# Type: biochemical
# experimental setup: human CD73 0.5 nM, AMP 30 μM, PiColorLock phosphate detection; read-out: Potency (IC50, CD73 enzyme assay)
# IC50 values compiled below
experimental readout: IC50

> print(dat)
                                   compound  experimental.readout  test.result
1  O=P(O)(O)CP(=O)(O)OC[C@H]1OC(c2cnc3c(NCc4ccccc4)ncnn23)[C@@H](F)[C@@H]1O (stereo in doubt)                  IC50    > 1000 nM
2  N#Cc1nc(NC2CCCC2)c2ncc([C@@H]3O[C@H](COP(=O)(O)CP(=O)(O)O)[C@@H](O)[C@H]3O)n2n1                  IC50      < 10 nM
3  O=P(O)(O)CP(=O)(O)OC[C@H]1O[C@@H](c2cnc3c(NCc4ccccc4)ncnn23)[C@H](O)[C@@H]1O                  IC50  10 to 99 nM
4  O=P(O)(O)CP(=O)(O)OC[C@H]1O[C@@H](c2cnc3c(NC4CC5CCC4C5)nc(Cl)nn23)[C@H](O)[C@@H]1O (stereo partly drawn)                  IC50      < 10 nM
5  O=P(O)(O)CP(=O)(O)OC[C@H]1O[C@@H](c2cnc3c(N[C@H]4CCOC4)nc(Cl)nn23)[C@H](O)[C@@H]1O                  IC50      < 10 nM
6  O=P(O)(O)CP(=O)(O)OC[C@H]1O[C@@H](c2cnc3c(NC4CCOC4)nc(Cl)nn23)[C@H](O)[C@@H]1O (stereo partly drawn)                  IC50      < 10 nM

----------
Catalogue of molecules with associated pIC50
# subject of test: Cell surface CD73 of U87 MG human glioblastoma cells (Homo sapiens)
# Construct: Cell surface CD73 catalyzes the conversion of adenosine monophosphate (AMP) to adenosine and inorganic phosphate; endogenous in cells
# Sequence (P21589 27-549): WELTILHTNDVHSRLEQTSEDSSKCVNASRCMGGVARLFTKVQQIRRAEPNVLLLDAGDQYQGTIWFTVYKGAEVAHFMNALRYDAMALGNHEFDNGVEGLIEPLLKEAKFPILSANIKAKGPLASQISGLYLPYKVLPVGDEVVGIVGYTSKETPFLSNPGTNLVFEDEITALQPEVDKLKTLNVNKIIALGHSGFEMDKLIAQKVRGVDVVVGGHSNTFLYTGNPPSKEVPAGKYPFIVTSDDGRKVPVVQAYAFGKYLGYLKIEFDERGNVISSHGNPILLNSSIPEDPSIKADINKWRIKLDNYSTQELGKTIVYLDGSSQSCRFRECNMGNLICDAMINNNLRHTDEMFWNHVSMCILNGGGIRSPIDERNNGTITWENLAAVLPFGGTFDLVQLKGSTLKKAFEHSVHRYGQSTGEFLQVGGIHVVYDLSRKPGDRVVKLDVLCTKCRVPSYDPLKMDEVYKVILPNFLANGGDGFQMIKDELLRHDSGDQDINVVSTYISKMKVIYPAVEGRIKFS
# experiment description: CD73 Cellular Assay
# experimental setup: 5000 cells per well, 30 μM AMP substrate, read-out: Potency (IC50, CD73 cellular assay)
pIC50: −log10 of the molar value.
experimental readout: pIC50

> print(dat)
                                    molecule  experimental.readout   test.result
 1  CC(C)[C@@H]1CCCN1c1nc(Cl)nn2c([C@@H]3O[C@H](COP(=O)(O)CP(=O)(O)O)[C@@H](O)[C@H]3O)cnc12                 pIC50        > 9.00
 2  O=P(O)(O)CP(=O)(O)OC[C@H]1O[C@@H](c2cnc3c(N4CCOCC4)nc(Cl)nn23)[C@H](O)[C@@H]1O                 pIC50        > 9.00
 3  O=P(O)(O)CP(=O)(O)OC[C@H]1O[C@@H](c2cnc3c(N4CCCC45CCC5)nc(Cl)nn23)[C@H](O)[C@@H]1O                 pIC50        > 9.00
 4  CN(c1nc(Cl)nn2c([C@@H]3O[C@H](COP(=O)(O)CP(=O)(O)O)[C@@H](O)[C@H]3O)cnc12)[C@H]1CCc2ccccc21                 pIC50        > 9.00
 5  O=P(O)(O)CP(=O)(O)OC[C@H]1O[C@@H](c2cnc3c(N4CCc5ccccc54)nc(Cl)nn23)[C@H](O)[C@@H]1O                 pIC50  8.00 to 9.00
 6  O=P(O)(O)CP(=O)(O)OC[C@H]1O[C@@H](c2cnc3c(N4CCC(F)(F)CC4)nc(Cl)nn23)[C@H](O)[C@@H]1O                 pIC50        > 9.00
 7  C[C@H](Nc1nc(Cl)nn2c([C@@H]3O[C@H](COP(=O)(O)CP(=O)(O)O)[C@@H](O)[C@H]3O)cnc12)c1cncc(F)c1                 pIC50  8.00 to 9.00
 8  O=P(O)(O)CP(=O)(O)OC[C@H]1O[C@@H](c2cnc3c(N4CC5CC5C4)nc(Cl)nn23)[C@H](O)[C@@H]1O (stereo partly shown)                 pIC50        > 9.00
 9  C[C@@H](Nc1nc(Cl)nn2c([C@@H]3O[C@H](COP(=O)(O)CP(=O)(O)O)[C@@H](O)[C@H]3O)cnc12)c1ccccc1                 pIC50  8.00 to 9.00
10  CO[C@H]1CC[C@H](Nc2nc(Cl)nn3c([C@@H]4O[C@H](COP(=O)(O)CP(=O)(O)O)[C@@H](O)[C@H]4O)cnc23)CC1                 pIC50        > 9.00
11  O=P(O)(O)CP(=O)(O)OC[C@H]1O[C@@H](c2cnc3c(NCC4CCOC4)nc(Cl)nn23)[C@H](O)[C@@H]1O (stereo partly shown)                 pIC50        > 9.00
12  O=P(O)(O)CP(=O)(O)OC[C@H]1O[C@@H](c2cnc3c(N[C@@H]4CCOC4)nc(Cl)nn23)[C@H](O)[C@@H]1O                 pIC50        > 9.00
13  CN(c1nc(Cl)nn2c([C@@H]3O[C@H](COP(=O)(O)CP(=O)(O)O)[C@@H](O)[C@H]3O)cnc12)C1CCc2ccccc21 (stereo partly shown)                 pIC50        > 9.00
14  C[C@H](Nc1nc(Cl)nn2c([C@@H]3O[C@H](COP(=O)(O)CP(=O)(O)O)[C@@H](O)[C@H]3O)cnc12)c1cccc(F)c1                 pIC50        > 9.00
15  O=P(O)(O)CP(=O)(O)OC[C@H]1O[C@@H](c2cnc3c(NC4CCOCC4)nc(Cl)nn23)[C@H](O)[C@@H]1O                 pIC50  8.00 to 9.00
16  COC1CCC(Nc2nc(Cl)nn3c([C@@H]4O[C@H](COP(=O)(O)CP(=O)(O)O)[C@@H](O)[C@H]4O)cnc23)C1 (stereo partly shown)                 pIC50        > 9.00
17  O=P(O)(O)CP(=O)(O)OC[C@H]1O[C@@H](c2coc3c(NCc4ccccc4)nc(Cl)nc23)[C@H](O)[C@@H]1O                 pIC50        > 9.00
18  O=P(O)(O)CP(=O)(O)OC[C@H]1O[C@@H](c2cnc3c(NC4CCc5ccccc54)nc(Cl)nn23)[C@H](O)[C@@H]1O (stereo partly shown)                 pIC50        > 9.00
19  C[C@H](Nc1nc(Cl)nn2c([C@@H]3O[C@H](COP(=O)(O)CP(=O)(O)O)[C@@H](O)[C@H]3O)cnc12)c1ccc(Cl)cc1                 pIC50        > 9.00
20  C[C@H](Nc1nc(Cl)nn2c([C@@H]3O[C@H](COP(=O)(O)CP(=O)(O)O)[C@@H](O)[C@H]3O)cnc12)c1ccc(F)cc1                 pIC50        > 9.00
21  O=P(O)(O)CP(=O)(O)OC[C@H]1O[C@@H](c2cnc3c(NC4CCOC4)nc(Cl)nn23)[C@H](O)[C@@H]1O (stereo partly shown)                 pIC50        > 9.00
22  O=P(O)(O)CP(=O)(O)OC[C@H]1O[C@@H](c2cnc3c(N[C@@H]4CCc5ccccc54)nc(Cl)nn23)[C@H](O)[C@@H]1O                 pIC50        > 9.00
23  C[C@H](Nc1nc(Cl)nn2c([C@@H]3O[C@H](COP(=O)(O)CP(=O)(O)O)[C@@H](O)[C@H]3O)cnc12)c1ccc(Cl)c(Cl)c1                 pIC50        > 9.00
24  O=P(O)(O)CP(=O)(O)OC[C@H]1O[C@@H](c2cnc3c(N4CCCC45CCCC5)nc(Cl)nn23)[C@H](O)[C@@H]1O                 pIC50  8.00 to 9.00
25  O=P(O)(O)CP(=O)(O)OC[C@H]1O[C@@H](c2cnc3c(N4CCc5ccccc5C4)nc(Cl)nn23)[C@H](O)[C@@H]1O                 pIC50        > 9.00
